# TARGET_UNDER_TEST: sGC α1/β1 heterodimer (Homo sapiens, UniProt Q02108+Q02153)
# Construct: expressed in transfected cells
# Sequence (Q02108 whole entry partner): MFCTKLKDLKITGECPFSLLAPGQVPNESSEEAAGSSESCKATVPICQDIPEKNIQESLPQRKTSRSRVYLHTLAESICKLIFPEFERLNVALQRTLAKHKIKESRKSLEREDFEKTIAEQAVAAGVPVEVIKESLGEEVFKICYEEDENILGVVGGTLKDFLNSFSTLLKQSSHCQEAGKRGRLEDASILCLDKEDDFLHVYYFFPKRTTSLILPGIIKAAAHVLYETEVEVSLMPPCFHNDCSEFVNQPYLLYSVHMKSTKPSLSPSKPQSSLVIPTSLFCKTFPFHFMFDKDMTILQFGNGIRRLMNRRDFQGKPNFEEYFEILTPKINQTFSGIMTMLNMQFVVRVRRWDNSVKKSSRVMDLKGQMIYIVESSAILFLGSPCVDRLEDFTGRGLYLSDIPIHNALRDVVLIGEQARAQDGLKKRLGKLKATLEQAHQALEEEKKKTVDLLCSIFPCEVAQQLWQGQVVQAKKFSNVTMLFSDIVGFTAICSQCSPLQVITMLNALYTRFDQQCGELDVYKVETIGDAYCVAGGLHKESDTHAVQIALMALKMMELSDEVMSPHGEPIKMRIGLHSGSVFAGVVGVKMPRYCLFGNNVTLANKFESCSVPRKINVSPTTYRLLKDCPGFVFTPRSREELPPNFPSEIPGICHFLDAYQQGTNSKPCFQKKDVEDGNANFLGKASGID
# Sequence (Q02153 whole entry): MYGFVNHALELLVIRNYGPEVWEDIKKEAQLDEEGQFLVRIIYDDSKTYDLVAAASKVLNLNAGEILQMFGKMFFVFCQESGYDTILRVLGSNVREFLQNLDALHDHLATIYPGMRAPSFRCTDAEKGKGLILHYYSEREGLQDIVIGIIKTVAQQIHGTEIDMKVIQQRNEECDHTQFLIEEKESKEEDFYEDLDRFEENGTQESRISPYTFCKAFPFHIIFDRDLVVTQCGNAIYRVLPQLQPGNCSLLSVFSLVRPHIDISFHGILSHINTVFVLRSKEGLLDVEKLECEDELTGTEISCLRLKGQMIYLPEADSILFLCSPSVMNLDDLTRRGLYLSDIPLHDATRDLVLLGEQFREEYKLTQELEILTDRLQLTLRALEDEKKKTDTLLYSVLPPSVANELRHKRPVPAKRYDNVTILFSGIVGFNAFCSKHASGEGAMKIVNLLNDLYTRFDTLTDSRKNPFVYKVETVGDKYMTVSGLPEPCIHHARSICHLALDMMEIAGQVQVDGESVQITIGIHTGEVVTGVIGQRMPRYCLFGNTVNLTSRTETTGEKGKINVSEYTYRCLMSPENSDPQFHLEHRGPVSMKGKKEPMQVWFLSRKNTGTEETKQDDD
# EXPERIMENTAL_DETAILS: Cell-Based sGC Functional Assay (CASA Assay)
# CONDITION_CONTEXT: CHO-K1/sGC cells, with ODQ incubation (10 μM), 1 hr at 37° C., intracellular cGMP by HTRF; read-out: IP (nM) (inflection point)
ENDPOINT: EC50 (nM)

Known EC50 results, listed for orientation:
O=C(O)c1cnn(-c2cccc(-c3ccccc3OCc3ccc(C4CCN(CC(F)(F)F)CC4)cc3)n2)c1C(F)(F)F 51.5
O=C(O)c1cnn(-c2cccc(-c3cccc(C(F)(F)F)c3OCc3ccc(C4CCN(C(=O)C5CC5)CC4)cc3)n2)c1C(F)(F)F 2.6

P = O=C(O)c1cnn(-c2cccc(-c3cc(F)cc(Cl)c3OCc3ccc(C4CCN(CC(F)(F)F)CC4)cc3)n2)c1C(F)(F)F
Q = COC(=O)N1CCC(c2ccc(COc3c(F)cccc3-c3cccc(-n4ncc(C(=O)O)c4C(F)(F)F)n3)cc2)CC1
R = COC(=O)N1CCC(c2ccc(COc3c(-c4cccc(-n5ncc(C(=O)O)c5C(F)(F)F)n4)cccc3C(F)(F)F)cc2)CC1
S = Cc1cc(C2CCN(CC(F)(F)F)CC2)ccc1COc1ccccc1-c1cccc(-n2ncc(C(=O)O)c2C(F)(F)F)n1
T = O=C(O)c1cnn(-c2cccc(-c3cccc(Cl)c3OCc3ccc(C4CCN(C(=O)C5CC5)CC4)cc3)n2)c1C(F)(F)F
Request: # rank by EC50, ascending (min first) Kindly provide the labels arranged according to the requested ordering.
Result: R, P, T, S, Q
(R: 1.5 nM, P: 2.4 nM, T: 5.4 nM, S: 10.4 nM, Q: 26.9 nM)

---

# TARGET_UNDER_TEST: sGC α1/β1 heterodimer (Homo sapiens, UniProt Q02108+Q02153)
# Construct: expressed in transfected cells
# EXPERIMENTAL_DETAILS: Cell-Based sGC Functional Assay (CASA Assay)
# CONDITION_CONTEXT: CHO-K1/sGC cells, with ODQ incubation (10 μM), 1 hr at 37° C., intracellular cGMP by HTRF; read-out: maximum fold induction over DMSO control
ENDPOINT: fold induction

As a guide, the following entries are already answered.
COMPOUND	fold induction
O=C(O)c1cnn(-c2cccc(-c3ccccc3OCc3ccc(C4CCN(CC(F)(F)F)CC4)cc3)n2)c1C(F)(F)F [Example 1]	281
COC(=O)N1CCC(c2ccc(COc3c(F)cccc3-c3cccc(-n4ncc(C(=O)O)c4C(F)(F)F)n3)cc2)CC1 [Example 5]	244
COC(=O)N1CCC(c2ccc(COc3c(-c4cccc(-n5ncc(C(=O)O)c5C(F)(F)F)n4)cccc3C(F)(F)F)cc2)CC1 [Example 77]	151
O=C(O)c1cnn(-c2cccc(-c3cc(F)cc(Cl)c3OCc3ccc(C4CCN(CC(F)(F)F)CC4)cc3)n2)c1C(F)(F)F [Example 2]	189
O=C(O)c1cnn(-c2cccc(-c3cccc(C(F)(F)F)c3OCc3ccc(C4CCN(C(=O)C5CC5)CC4)cc3)n2)c1C(F)(F)F [Example 81]	170

1 = Cc1cc(C2CCN(CC(F)(F)F)CC2)ccc1COc1ccccc1-c1cccc(-n2ncc(C(=O)O)c2C(F)(F)F)n1 [Example 3]
2 = CCC(=O)N1CCC(c2ccc(COc3c(-c4cccc(-n5ncc(C(=O)O)c5C(F)(F)F)n4)cccc3C(F)(F)F)cc2)CC1 [Example 76]
3 = O=C(O)c1cnn(-c2cccc(-c3cccc(Cl)c3OCc3ccc(C4CCN(C(=O)C5CC5)CC4)cc3)n2)c1C(F)(F)F [Example 84]
Request: Hi! Can you put these in order of fold induction, lowest number first? Give me the labels in the order the question wants.
Result: 3, 1, 2
(3: 50, 1: 127, 2: 216)

Just for reference, patent US8507512B2 is where these values come from.
